Recorded measurements of activity change, negative = inhibition, one per entry
experimental.details: qHTS Assay for inhibitors of the human cytomegalovirus (HCMV); note: % is set by controls: 0 for no effect and ±100 for the full control effect
condition.label: HFF cells, HCMV-luciferase reporter, 72 h; at 57.5 µM; stronger effect = lower value
The whole screen tested about 410,000 compounds, of which about 18,000 (4.4%) were called active. Inconclusive results (about 7%) are left out. What follows is part of a selection rich in actives, with near analogues and random picks from the rest.

# input Quick one: give measured activity change, negative = inhibition for Oc1cccc(/C=N/Nc2ccc(Cl)nn2)c1O
# output -95.1% (active)

# input Quick one: give measured activity change, negative = inhibition for Cc1cc(C)cc(NC(=O)CCS(=O)(=O)c2cc3c4c(c2)CCN4C(=O)CC3)c1
# output -0.0143% (inactive)

# input Quick one: give measured activity change, negative = inhibition for CCC(=O)c1ccc(OCC(O)Cn2nc(C)c(C(C)=O)c2C)cc1 (centres undefined)
# output -74.9% (active)

# input Quick one: give measured activity change, negative = inhibition for CC(C)(C)OC(=O)C[C@H]1C/C=C\C[C@@H](CC(=O)N[C@H](CO)Cc2ccccc2)C(=O)NC[C@@H](c2ccccc2)OC1=O
# output -8.79% (inactive)

# input Quick one: give measured activity change, negative = inhibition for Cc1ccc2nsnc2c1S(=O)(=O)N1CCCC1C(=O)O (centres undefined)
# output -8.96% (inactive)

# input Quick one: give measured activity change, negative = inhibition for O=C(NCc1ccc(Cl)cc1)c1ccc2c(c1)nnn2C1CCCC1
# output -1.14% (inactive)

# input Quick one: give measured activity change, negative = inhibition for CCC(=O)c1ccc(OCC(O)CN2C(=O)NC(C)(C)C2=O)cc1 (centres undefined)
# output -18.3% (inactive)

# input Quick one: give measured activity change, negative = inhibition for COc1ccc(-c2nc3scc(CCNS(=O)(=O)c4cc(F)ccc4OC)n3n2)cc1OC
# output 34.6% (inactive)

# input Quick one: give measured activity change, negative = inhibition for CC(C)(C)OC(=O)C[C@@H]1C/C=C\C[C@@H](CC(=O)N[C@H](CO)Cc2ccccc2)C(=O)NC[C@@H](c2ccccc2)OC1=O
# output -6.88% (inactive)
